Where these numbers come from: ChEMBL document CHEMBL3763072

# procedure.details: Volume of distribution at steady state in mouse at 1 mg/kg, iv
# Type: ADME, organism-based
# test.conditions: in vivo, read-out: Vdss
assay.endpoint: Vd (L/kg)
Write the number in L/kg without appending the unit.

Challenge: Can you share its Vd? I mean this compound: CC1(C)CCc2cc(S(=O)(=O)N(CC(=O)O)C3(c4cccc(-c5cc(Cl)cc(Cl)c5)c4)CCC3)ccc2O1
Response given: 7.42

###

# assay.target: Voltage-gated inwardly rectifying potassium channel KCNH2 (Homo sapiens)
# Sequence (Q12809 whole entry): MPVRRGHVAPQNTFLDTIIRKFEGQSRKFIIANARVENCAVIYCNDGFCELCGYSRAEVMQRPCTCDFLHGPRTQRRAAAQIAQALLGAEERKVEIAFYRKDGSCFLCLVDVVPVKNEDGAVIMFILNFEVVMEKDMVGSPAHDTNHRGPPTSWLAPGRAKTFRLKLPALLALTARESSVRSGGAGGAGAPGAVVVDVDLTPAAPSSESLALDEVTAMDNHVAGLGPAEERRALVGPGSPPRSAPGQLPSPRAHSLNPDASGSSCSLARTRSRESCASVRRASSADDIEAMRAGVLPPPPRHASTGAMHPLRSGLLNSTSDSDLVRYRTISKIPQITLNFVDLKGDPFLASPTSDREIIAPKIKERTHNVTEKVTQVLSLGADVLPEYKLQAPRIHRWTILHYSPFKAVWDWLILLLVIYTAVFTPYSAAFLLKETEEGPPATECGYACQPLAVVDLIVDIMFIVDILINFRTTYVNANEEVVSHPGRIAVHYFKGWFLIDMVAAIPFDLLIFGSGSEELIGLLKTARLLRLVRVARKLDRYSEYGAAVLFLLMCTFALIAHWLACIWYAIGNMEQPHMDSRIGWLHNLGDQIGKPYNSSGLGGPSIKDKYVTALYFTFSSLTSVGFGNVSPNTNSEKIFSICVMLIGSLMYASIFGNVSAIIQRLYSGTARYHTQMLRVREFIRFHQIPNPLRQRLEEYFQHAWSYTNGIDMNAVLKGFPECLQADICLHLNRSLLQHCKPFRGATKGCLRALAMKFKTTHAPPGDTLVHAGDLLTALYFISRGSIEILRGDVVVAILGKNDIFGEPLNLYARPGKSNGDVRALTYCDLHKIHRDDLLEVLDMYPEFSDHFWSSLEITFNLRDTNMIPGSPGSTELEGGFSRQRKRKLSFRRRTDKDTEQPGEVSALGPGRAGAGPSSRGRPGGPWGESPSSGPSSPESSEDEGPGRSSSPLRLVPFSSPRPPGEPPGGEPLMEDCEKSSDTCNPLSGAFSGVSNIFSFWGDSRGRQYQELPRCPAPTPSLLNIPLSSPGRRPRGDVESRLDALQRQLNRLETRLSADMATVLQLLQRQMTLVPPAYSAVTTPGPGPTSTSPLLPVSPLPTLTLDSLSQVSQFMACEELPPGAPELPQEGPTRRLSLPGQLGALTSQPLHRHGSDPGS
assay.endpoint: IC50 (µM)
Value expressed in µM; do not type the unit.

Challenge: Need IC50, item O=C(O)CN(Cc1cccc(-c2ccccc2OC(F)(F)F)c1)S(=O)(=O)c1ccc(OC(F)F)cc1
Response given: 11

###

# procedure.details: Tmax in mouse at 10 mg/kg, ip
# Type: ADME, organism-based
# test.conditions: in vivo
assay.endpoint: Tmax
Note: a bare number is incomplete; add the unit.

Challenge: Item CC1(C)CCc2cc(S(=O)(=O)N(CC(=O)O)C3(c4cccc(-c5cc(Cl)cc(Cl)c5)c4)CCC3)ccc2O1 has what recorded Tmax?
Response given: 37.8 min

###

# procedure.details: physchem
# test.conditions: octanol/phosphate buffer, pH 7.4
assay.endpoint: logD
Could you keep your reply to the number by itself?

Challenge: Could you tell me which logD is on file for CC1(C)CCc2cc(S(=O)(=O)N(CC(=O)O)Cc3cccc4cccnc34)ccc2O1 ?
Response given: 0.5
